Test system: VIM-2 metallo-beta-lactamase (Pseudomonas aeruginosa)
Assay: inhibition of VIM-2 nitrocefin hydrolysis – biochemical, epi-absorbance readout, Pseudomonas aeruginosa enzyme, primary screen (AID 1527);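 note: red hydrolysis product quenches plate fluorescence so inhibitors raise well fluorescence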
Settings: purified VIM-2, nitrocefin hydrolysis, epi-absorbance fluorescence; at 5.6 µM
Among all 290,000 compounds or so, about 2,600 (0.9%) were called active.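 Rule for the calls: active = inhibition above the mean of all tested compounds plus 3 SD, cutoff set per screening run (cut at about 7.5% in these data); inactive = the rest.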 The entries come from a sample that favours actives as a whole.
# output must be one of TRUE (active), FALSE (inactive)

# example entries with known answers
> print(dat)
                                   molecule  assigned.class
1  O=C(Nc1ccc(-n2ccnc2P(=O)(O)c2ccccc2)cc1)c1ccccc1Br            TRUE
2  C[C@@H](Nc1nc(-c2ccccc2)nc2c1oc1ccccc12)C(=O)O           FALSE
3         Cc1cc(NC(C)C)n2c(nc3ccccc32)c1C#N           FALSE

Hi, do you know how Cc1ccc(NC(=O)c2cccnc2C(=O)Nc2ccc(C)cc2)cc1 came out in this test?
FALSE

Hi, do you know how CCOc1ccc2[nH]c(C(=O)N/N=C/c3cccc(OC)c3OC)cc2c1 came out in this test?
FALSE

Hi, do you know how COc1ccc(S(=O)(=O)N(CC(=O)NCc2ccco2)c2ccc(F)cc2)cc1 came out in this test?
FALSE

Hi, do you know how Cc1nc(N)nc(SCc2ccc([N+](=O)[O-])cc2)c1N came out in this test?
FALSE

Hi, do you know how CCC1CCCCN1CCCNC(=O)C1CCC(Cn2c(=O)[nH]c3ccccc3c2=O)CC1 (stereo not drawn) came out in this test?
FALSE

FYI, the data here is from PubChem BioAssay AID1527.
